- assayedTarget: Signal transducer and activator of transcription 3 (Homo sapiens) (UniProt P40763)
- Sequence (P40763 whole entry): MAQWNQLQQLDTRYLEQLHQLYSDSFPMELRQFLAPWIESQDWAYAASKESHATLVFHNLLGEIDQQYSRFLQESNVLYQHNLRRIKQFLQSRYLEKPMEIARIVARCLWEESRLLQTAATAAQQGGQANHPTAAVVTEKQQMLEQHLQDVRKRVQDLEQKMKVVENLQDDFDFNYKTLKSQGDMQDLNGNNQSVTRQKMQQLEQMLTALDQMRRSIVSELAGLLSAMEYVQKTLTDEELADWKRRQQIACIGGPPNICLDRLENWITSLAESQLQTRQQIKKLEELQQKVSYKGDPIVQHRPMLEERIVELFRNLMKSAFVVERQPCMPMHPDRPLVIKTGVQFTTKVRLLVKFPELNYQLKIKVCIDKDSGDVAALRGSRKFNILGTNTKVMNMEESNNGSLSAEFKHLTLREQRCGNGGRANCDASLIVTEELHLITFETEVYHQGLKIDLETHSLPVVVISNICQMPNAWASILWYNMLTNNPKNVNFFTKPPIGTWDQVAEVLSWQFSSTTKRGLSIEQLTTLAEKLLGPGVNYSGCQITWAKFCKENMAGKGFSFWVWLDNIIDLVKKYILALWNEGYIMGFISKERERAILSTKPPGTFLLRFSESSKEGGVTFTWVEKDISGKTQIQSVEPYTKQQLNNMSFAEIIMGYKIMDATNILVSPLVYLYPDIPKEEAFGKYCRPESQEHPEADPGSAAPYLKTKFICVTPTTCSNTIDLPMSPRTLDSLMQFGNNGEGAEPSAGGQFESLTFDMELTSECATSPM
- experimentalDetails: Inhibition of IL-6-stimulated STAT3 activation in human THP1 cells at 100 uM incubated for 30 mins prior to IL-6 stimulation measured after 15 mins by EMSA relative to control
- Format: cell-based
- setupConditions: THP-1
property: inhibition (%)
Respond with the bare value in %.

molecule: COC(=O)c1cc(OCCCCCCn2c3ccccc3c3c(O)cccc32)cc(C(=O)OC)c1
assayedTarget: Signal transducer and activator of transcription 3 (Homo sapiens) (UniProt P40763)
resultUnits: %
inhibition: 5
--
molecule: COC(=O)c1cc(OCCCCCn2c3ccccc3c3c(O)cccc32)cc(C(=O)OC)c1
assayedTarget: Signal transducer and activator of transcription 3 (Homo sapiens) (UniProt P40763)
resultUnits: %
inhibition: 20

Reported inhibition for COC(=O)c1ccccc1OCCCCCCn1c2ccc(OC)cc2c2c(C)ccc(C)c21 was 1

Reported inhibition for COC(=O)c1cc(OCCCCCCCn2c3ccccc3c3c(O)cccc32)cc(C(=O)OC)c1 was 6

----------
- assayedTarget: Signal transducer and activator of transcription 3 (Homo sapiens)
- experimentalDetails: Inhibition of IL-6-stimulated STAT3 activation in human THP1 cells at 100 uM incubated for 30 mins prior to IL-6 stimulation measured after 15 mins by EMSA relative to control
- Assay type: cell-based
- setupConditions: THP-1
Each entry below lists one item and its recorded inhibition value.
Respond with the bare value in %.

Below, 2 compounds whose answers are already recorded.
molecule: COC(=O)c1ccccc1OCCCCCCCn1c2ccc(OC)cc2c2c(C)ccc(C)c21
inhibition / %: 6

molecule: COC(=O)c1ccccc1OCCCCCCn1c2ccccc2c2ccc(O)cc21
inhibition / %: 1

Reported inhibition for COC(=O)c1cc(OCCCCCn2c3ccccc3c3ccc(O)cc32)cc(C(=O)OC)c1 was 1

Reported inhibition for COC(=O)c1ccccc1OCCCCCn1c2ccc(OC)cc2c2c(C)ccc(C)c21 was 3

Reported inhibition for COC(=O)c1cc(OCCCCCCCn2c3ccccc3c3ccc(O)cc32)cc(C(=O)OC)c1 was 5

Reported inhibition for COC(=O)c1cc(OCCCCCCn2c3ccccc3c3ccc(O)cc32)cc(C(=O)OC)c1 was 1

Reported inhibition for COC(=O)c1ccccc1OCCCCCCn1c2ccccc2c2c(O)cccc21 was 3
